Test system: MRSA USA300
method: Antibacterial activity assay (MIC by broth microdilution, MBC by subculture)
Assay type: cell-based, Staphylococcus aureus
measurement.context: +8 mg/L DHA
observable: MBC (µg/mL)

>  <molecule>
CNC(=O)c1cc(Oc2ccc(NC(=O)Nc3ccc(Cl)c(C(F)(F)F)c3)cc2)ccn1 [Sorafenib]

>  <measured.target>
MRSA USA300

>  <observable>
MBC

>  <unit.of.measurement>
µg/mL

>  <meas.value>
1

$$$$
>  <molecule>
O=C(Nc1cc(Cl)cc(Cl)c1)C(CCCl)C(=O)Nc1ccc([N+](=O)[O-])c(C(F)(F)F)c1 (stereo not shown) [SC5041]

>  <measured.target>
MRSA USA300

>  <observable>
MBC

>  <unit.of.measurement>
µg/mL

>  <meas.value>
0.0625

$$$$
>  <molecule>
C=CCC(C(=O)Nc1cc(Cl)cc(Cl)c1)C(=O)Nc1cc(Cl)cc(Cl)c1 [SC5040]

>  <measured.target>
MRSA USA300

>  <observable>
MBC

>  <unit.of.measurement>
µg/mL

>  <meas.value>
0.125

$$$$
>  <molecule>
O=C(Nc1ccc(Cl)c(C(F)(F)F)c1)Nc1ccc(Cl)c(C(F)(F)F)c1 [SC5178]

>  <measured.target>
MRSA USA300

>  <observable>
MBC

>  <unit.of.measurement>
µg/mL

>  <meas.value>
0.00156

$$$$

* * *

method: Antiproliferation assay (MTT)
Assay type: cell-based
measurement.context: human, HeLa cells, DHA 4 mg/L, read-out: CC50 of SC5005

>  <compound.structure>
O=C(Nc1ccc(Cl)c(C(F)(F)F)c1)C(CCCl)C(=O)Nc1ccc(Cl)c(C(F)(F)F)c1

>  <unit.of.measurement>
µg/mL

>  <CC50 at 24 h>
24.2

$$$$

* * *

method: Antiproliferation assay (MTT)
Type: cell-based
measurement.context: human, HeLa cells, DHA 0 mg/L, read-out: CC50 of SC5005
observable: CC50 at 24 h (µg/mL)

>  <compound.structure>
O=C(Nc1ccc(Cl)c(C(F)(F)F)c1)C(CCCl)C(=O)Nc1ccc(Cl)c(C(F)(F)F)c1

>  <observable>
CC50 at 24 h

>  <meas.value>
22.5

$$$$

* * *

method: Antiproliferation assay (MTT)
Format: cell-based
measurement.context: human, HeLa cells, DHA 16 mg/L, read-out: CC50 of SC5005

>  <compound.structure>
O=C(Nc1ccc(Cl)c(C(F)(F)F)c1)C(CCCl)C(=O)Nc1ccc(Cl)c(C(F)(F)F)c1

>  <CC50 at 24 h [µg/mL]>
21.4

$$$$

* * *

method: Antiproliferation assay (MTT)
Assay type: cell-based
measurement.context: human, HEK-293 cells, DHA 0 mg/L, read-out: CC50 of SC5005

>  <compound.structure>
O=C(Nc1ccc(Cl)c(C(F)(F)F)c1)C(CCCl)C(=O)Nc1ccc(Cl)c(C(F)(F)F)c1

>  <CC50 at 24 h>
14.1 µg/mL

$$$$

* * *

method: Antiproliferation assay (MTT)
Format: cell-based
measurement.context: human, HEK-293 cells, DHA 4 mg/L, read-out: CC50 of SC5005

>  <compound>
O=C(Nc1ccc(Cl)c(C(F)(F)F)c1)C(CCCl)C(=O)Nc1ccc(Cl)c(C(F)(F)F)c1 [SC5005]

>  <CC50 at 24 h>
15.6 µg/mL

$$$$
